# Tested on: UACC-62 melanoma
# Protocol: NCI tumour cell line growth inhibition, 48 h
Exercise: for every item that follows, state its recorded TGI.

Reported TGI ( `CC1(C)OCC2(CO1)CSCCCSCC1(COC(C)(C)OC1)CSCCCSC2` ) = > 100 µM

Reported TGI ( CC(N=C(N)N)C(=O)O (stereo not drawn) ) = > 100 µM

Reported TGI ( `Cc1cc(=O)oc2c(CN3CCCCC3)c(O)ccc12` ) = > 100 µM

Reported TGI ( `CSc1c(C#N)c(O)n(-c2ccc(C)cc2)c(=O)c1C#N` ) = > 100 µM

Reported TGI ( `N#Cc1nc(C2CC2)oc1N` ) = > 100 µM

Reported TGI ( COC(=O)CCC1(C)C2CCC1(C)/C(=N/O)C2 (stereo not drawn) ) = > 100 µM

Reported TGI ( `Cc1c(/C=N/NC(=S)Nc2cccc(Cl)c2)c(=O)n(-c2ccccc2)n1C` ) = > 100 µM

Reported TGI ( `COc1cc2ccccc2c2cc([N+](=O)[O-])oc12` ) = 2.36 µM

Reported TGI ( NC(=O)C(c1ccccc1)N1OC2C(=O)N(Cc3ccccc3)C(=O)C2C1c1cccc(Oc2ccc(Cl)cc2)c1 (stereo not drawn) ) = 32.3 µM

Reported TGI ( `N=Nc1c(OC(=O)Nc2ccccc2)[nH]c2ccccc12` ) = 35.5 µM

Reported TGI ( `C=C(C)[C@@H]1C[C@H]2O[C@](O)(C(=C)CC(=O)/C=C(/C)C[C@@H]3OC(=O)[C@]24O[C@@H]34)[C@H]1O` ) = > 100 µM

Reported TGI ( `O=C(O)CN=C(C(=NCC(=O)O)c1ccccc1)c1ccccc1` ) = > 100 µM

Reported TGI ( COc1ccc(C(C#N)NC23CC4CC(CC(C4)C2)C3)cc1OC (stereo not drawn) ) = > 100 µM

Reported TGI ( CC(CN(C)C)C(=O)c1ccccc1C(=O)O (stereo not drawn) ) = 51.3 µM

Reported TGI ( `O=C(COc1ccc(/C=C2\Oc3ccccc3C2=O)cc1)Nc1nccs1` ) = > 100 µM

Reported TGI ( CC1(C)CCC[C@@]2(C)C1C[C@H](O)[C@@]1(C)O[C@@](C)([C@H](O)CO)CCC21 (stereo partly drawn) ) = 96.1 µM

Reported TGI ( COC(=O)C1CC(=O)CCC1c1ccccc1 (stereo not drawn) ) = > 100 µM

Reported TGI ( COc1ccc(-c2cc(-c3ccc(Cl)cc3)n(C3OC(CO)C(O)C(O)C3O)c(=S)c2C#N)cc1 (stereo not drawn) ) = > 100 µM

Reported TGI ( `O=c1[nH][nH]c(=O)[nH]1` ) = > 100 µM

Reported TGI ( `O=[N+]([O-])c1cc([N+](=O)[O-])c(Cl)c(Cl)c1Cl` ) = 2.64 µM

Reported TGI ( CC(=O)NC1=C(C)C(=O)c2c(nc3n2CCC3OC(=O)c2ccccc2)C1=N (stereo not drawn) ) = 1.09 µM

Reported TGI ( O=C1c2ccccc2NC(c2cc(Cl)cc(Cl)c2O)N1CCc1ccccn1 (stereo not drawn) ) = > 100 µM

Reported TGI ( `CCCCCCCC(=O)OC[C@@H](C[As](=O)(O)O)OC(=O)CCCCCCC` ) = 23.4 µM
